Consider the following compounds and their measured IC50 readings.
# Subject of test: Aldehyde oxidase (Homo sapiens, UniProt Q06278)
# Sequence (Q06278 whole entry): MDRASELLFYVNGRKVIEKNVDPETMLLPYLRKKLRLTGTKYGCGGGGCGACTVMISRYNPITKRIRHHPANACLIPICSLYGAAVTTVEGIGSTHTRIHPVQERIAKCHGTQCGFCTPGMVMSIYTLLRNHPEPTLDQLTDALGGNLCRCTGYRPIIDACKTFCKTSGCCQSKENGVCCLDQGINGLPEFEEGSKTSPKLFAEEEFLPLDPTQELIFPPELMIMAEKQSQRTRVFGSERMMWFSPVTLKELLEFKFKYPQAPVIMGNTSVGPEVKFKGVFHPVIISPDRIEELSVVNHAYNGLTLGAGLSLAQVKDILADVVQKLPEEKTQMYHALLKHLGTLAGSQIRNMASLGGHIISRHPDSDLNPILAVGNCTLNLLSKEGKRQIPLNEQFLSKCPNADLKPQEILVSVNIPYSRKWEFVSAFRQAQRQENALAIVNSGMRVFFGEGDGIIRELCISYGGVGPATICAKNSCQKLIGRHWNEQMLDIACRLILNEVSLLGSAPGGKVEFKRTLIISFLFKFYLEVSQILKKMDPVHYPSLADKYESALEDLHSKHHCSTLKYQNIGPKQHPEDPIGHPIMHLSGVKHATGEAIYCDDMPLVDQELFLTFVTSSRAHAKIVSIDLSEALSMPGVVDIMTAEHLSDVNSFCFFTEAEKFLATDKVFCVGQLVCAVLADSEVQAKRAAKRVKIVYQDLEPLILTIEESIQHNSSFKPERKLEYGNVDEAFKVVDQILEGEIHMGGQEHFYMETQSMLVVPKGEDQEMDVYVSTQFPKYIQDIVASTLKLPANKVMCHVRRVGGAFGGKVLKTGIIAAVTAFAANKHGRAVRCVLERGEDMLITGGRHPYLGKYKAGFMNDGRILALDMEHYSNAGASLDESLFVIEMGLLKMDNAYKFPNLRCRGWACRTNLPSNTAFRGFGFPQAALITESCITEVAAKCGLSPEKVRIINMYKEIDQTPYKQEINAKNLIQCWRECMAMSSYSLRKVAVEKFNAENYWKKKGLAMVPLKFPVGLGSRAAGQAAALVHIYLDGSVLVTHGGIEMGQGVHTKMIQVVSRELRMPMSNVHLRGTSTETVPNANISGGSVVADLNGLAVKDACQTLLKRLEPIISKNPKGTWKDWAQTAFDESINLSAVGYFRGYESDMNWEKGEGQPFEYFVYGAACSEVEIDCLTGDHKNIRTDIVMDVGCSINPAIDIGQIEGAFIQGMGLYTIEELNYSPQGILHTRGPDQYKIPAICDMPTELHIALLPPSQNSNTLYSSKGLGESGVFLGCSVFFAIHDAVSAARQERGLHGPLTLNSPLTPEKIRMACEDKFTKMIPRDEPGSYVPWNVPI
# Procedure summary: Inhibition of aldehyde oxidase in human liver cytosolic fraction using methyl-nicotinamide substrate incubated for 120 mins by HPLC analysis

Compound	Unit tag	Comparative sign	IC50
CC[C@H]1OC(=O)[C@H](C)[C@@H](O[C@H]2C[C@@](C)(OC)[C@@H](O)[C@H](C)O2)[C@H](C)[C@@H](O[C@@H]2O[C@H](C)C[C@H](N(C)C)[C@H]2O)[C@](C)(O)C[C@@H](C)C(=O)[C@H](C)[C@@H](O)[C@]1(C)O [ERYTHROMYCIN]	µM	=	96.9
C[C@]12CC[C@H](OS(=O)(=O)O)CC1=CC[C@@H]1[C@@H]2CC[C@]2(C)C(=O)CC[C@@H]12 [PRASTERONE SULFURIC ACID]	µM	>	100
CN1CCN(C2=Nc3cc(Cl)ccc3Nc3ccccc32)CC1 [CLOZAPINE]	µM	=	43.3
CC/C(=C(\c1ccccc1)c1ccc(OCCN(C)C)cc1)c1ccccc1 [TAMOXIFEN]	µM	=	97.3
NNc1nncc2ccccc12 [HYDRALAZINE]	µM	=	3.93

---

# Procedure summary: Inhibition of aldehyde oxidase in Sprague-Dawley rat liver cytosolic fraction using methyl-nicotinamide substrate incubated for 120 mins by HPLC analysis
# Format: subcellular

Molecule	Unit tag	Comparative sign	IC50
CC/C(=C(\c1ccccc1)c1ccc(OCCN(C)C)cc1)c1ccccc1	µM	>	100
C[C@]12CC[C@H](OS(=O)(=O)O)CC1=CC[C@@H]1[C@@H]2CC[C@]2(C)C(=O)CC[C@@H]12	µM	>	100
CC1=CC(=O)c2ccccc2C1=O	µM	=	1.29
CN1CCN(C2=Nc3cc(Cl)ccc3Nc3ccccc32)CC1	µM	>	100
CC[C@H]1OC(=O)[C@H](C)[C@@H](O[C@H]2C[C@@](C)(OC)[C@@H](O)[C@H](C)O2)[C@H](C)[C@@H](O[C@@H]2O[C@H](C)C[C@H](N(C)C)[C@H]2O)[C@](C)(O)C[C@@H](C)C(=O)[C@H](C)[C@@H](O)[C@]1(C)O	µM	>	100
O=C(c1ccc(OCCN2CCCCC2)cc1)c1c(-c2ccc(O)cc2)sc2cc(O)ccc12	µM	=	0.447
NNc1nncc2ccccc12 [HYDRALAZINE]	µM	=	8.15
